The entries below are paired with their reported hOX2R_Ipone max %act.
Tested system: hOX2R (Homo sapiens)
Construct: expressed in transfected cells; host or cells: CHO cells (G418 selection)
Sequence (O43614 1-444): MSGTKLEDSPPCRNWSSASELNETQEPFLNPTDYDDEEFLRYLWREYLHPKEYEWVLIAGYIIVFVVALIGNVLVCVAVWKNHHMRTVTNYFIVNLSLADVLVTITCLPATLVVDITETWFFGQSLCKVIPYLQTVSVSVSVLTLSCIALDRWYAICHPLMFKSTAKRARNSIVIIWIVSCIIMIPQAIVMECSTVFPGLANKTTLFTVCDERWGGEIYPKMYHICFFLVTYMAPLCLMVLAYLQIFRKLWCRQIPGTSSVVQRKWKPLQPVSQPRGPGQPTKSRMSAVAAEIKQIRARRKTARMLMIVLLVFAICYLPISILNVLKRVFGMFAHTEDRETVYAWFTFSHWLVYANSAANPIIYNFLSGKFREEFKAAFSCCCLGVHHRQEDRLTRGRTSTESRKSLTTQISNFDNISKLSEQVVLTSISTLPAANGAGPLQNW
Assay info: hOX2R IPone assay (orexin receptor agonism)
Format: cell-based
Conditions used: maximal activation, IPone readout
# include the unit after the value

| Compound | Tested system | Recorded result |
| --- | --- | --- |
| CCN1C(=O)NCC(C(F)(F)F)N(C)CCCOc2nc(cn3ccnc23)-c2cccc(c2)C1C (stereo not shown) [Example 26B] | hOX2R (Homo sapiens) | 98.8% |
| CCN1Cc2ccc(OC)c(c2)-c2cn3ccnc3c(n2)OCCCC[C@H](CCC(F)(F)F)NC1=O | hOX2R (Homo sapiens) | 100.4% |
| CCN1C(=O)N[C@@H](CCC(F)(F)F)CCCCCOc2nc(cn3ccnc23)-c2cc(nc3ccoc23)C1C (single isomer, unassigned) [Example 74A] | hOX2R (Homo sapiens) | 99.5% |
| CCN1Cc2cc(ccn2)-c2cn3ccnc3c(n2)OCCCCC[C@H](CCC(F)(F)F)NC1=O | hOX2R (Homo sapiens) | 98.4% |
| CCN1C(=O)N[C@@H](CCC(F)(F)F)CCCCCOc2nc(cn3ccnc23)-c2cccc(n2)C1C (stereo partly shown) | hOX2R (Homo sapiens) | 100.8% |

So, CCN1C(=O)N[C@@H](CCC(F)(F)F)CCCCCOc2nc(cn3c(C)cnc23)-c2cc(nc3ccoc23)C1C (single isomer, unassigned) [Example 76A] ? Its hOX2R_Ipone max %act was 98.9%

So, CCN1C(=O)NCc2nc(no2)CCOc2nc(cn3ccnc23)-c2cccc(c2)[C@H]1C ? Its hOX2R_Ipone max %act was 64.2%

###

Tested system: hOX2R (Homo sapiens, UniProt O43614)
Construct: expressed in transfected cells; host or cells: CHO cells (G418 selection)
Assay info: hOX2R IPone assay (orexin receptor agonism)
Format: cell-based
Conditions used: maximal activation, IPone readout
Measurement name: hOX2R_Ipone max %act (%)
Respond with the bare value in %.

Please review the entries below; each comes with its answer.
| Molecule | Tested system | hOX2R_Ipone max %act [%] |
| --- | --- | --- |
| CCN1C(=O)N[C@@H](CCC(F)(F)F)CCCCCOc2cc(cc3ccnn23)-n2nc(cc2C2CC2)C1C (mixture of isomers) [Example 210] | hOX2R (Homo sapiens, UniProt O43614) | 102.8 |
| CCN1C(=O)NC(CC(C)C)CCCCCOc2nc(cn3ccnc23)-c2cc(ncc2OC)[C@H]1C (single isomer, unassigned) [Example 53A] | hOX2R (Homo sapiens, UniProt O43614) | 101.5 |
| CCN1C(=O)NC(CC2(C(F)(F)F)CC2)CCCCCOc2nc(cn3ccnc23)-c2cc(ncc2OC)[C@H]1C (single isomer, unassigned) [Example 66B] | hOX2R (Homo sapiens, UniProt O43614) | 101.1 |

So, CCN1C(=O)NC(CCC(F)(F)F)C(C)CCCOc2nc(cn3ccnc23)-c2cccc(c2)[C@H]1C (single isomer, unassigned) [Example 42C] ? Its hOX2R_Ipone max %act was 99.7

So, CCN1C(=O)N[C@@H](CCC(F)(F)F)CCCCCOc2nc(cn3ccnc23)-c2nc(cnc2OC)[C@H]1C [Example 139] ? Its hOX2R_Ipone max %act was 97.88

So, CCN1C(=O)N[C@@H](C(F)(F)F)CCCCOc2nc(cn3ncnc23)-c2cc(ncc2OC)C1C(F)(F)F (stereo partly drawn) [Example 37] ? Its hOX2R_Ipone max %act was 77.3

###

The entries below are paired with their reported hOX2R_Ipone max %act.
Tested system: hOX2R (Homo sapiens, UniProt O43614)
Construct: expressed in transfected cells; host or cells: CHO cells (G418 selection)
Assay info: hOX2R IPone assay (orexin receptor agonism)
Type: cell-based
Conditions used: maximal activation, IPone readout
Respond with the bare value in %.

Please review the entries below; each comes with its answer.
| Compound | Recorded result |
| --- | --- |
| CCN1C(=O)N[C@@H](CCC(F)(F)F)CCCCCOc2cc(nc3ccnn23)-c2cc(ncc2OC)[C@H]1C [Example 100] | 102.2 |
| CCN1C(=O)NC(CC2CC(F)(F)C2)CCCCCOc2nc(cn3ccnc23)-c2cc(ncc2OC)[C@H]1C (single isomer, unassigned) [Example 69B] | 101.1 |
| CCN1C(=O)NC(CCCOC)CCCCCOc2nc(cn3ccnc23)-c2cc(ncc2OC)[C@H]1C (single isomer, unassigned) [Example 60A] | 100.4 |
| CCN1C(=O)NC(C(O)CC(F)(F)F)CCCCCOc2cn3ncnc3c(n2)-c2cc(ncc2OC)C1C (centres unmarked) [Example 132] | 102.9 |

So, CCN1C(=O)N[C@@H](CCC(F)(F)F)CCCCCOc2nc(cn3ccnc23)-c2cc(ncn2)C1C (some centres unmarked) [Example 112B] ? Its hOX2R_Ipone max %act was 101.8

So, CCN1C(=O)NCCCCCOc2nc(cn3ncnc23)-c2cc(ncc2OC)C1C(F)(F)F (centres unmarked) [Example 35] ? Its hOX2R_Ipone max %act was 82.8

So, CCN1C(=O)N[C@@H](CCC(F)(F)F)CCCCCOc2nc(cn3ccnc23)-c2nc(ncc2OC)[C@@H]1C [Example 117A] ? Its hOX2R_Ipone max %act was 101.7

So, CCN1C(=O)N[C@@H](CCC(F)(F)F)CCCCOc2nc(cn3ccnc23)-c2ccnc(c2)[C@H]1C [Example 29B] ? Its hOX2R_Ipone max %act was 99.7

So, CCN1C(=O)NC(CC2CCC2)CCCCCOc2nc(cn3ccnc23)-c2cc(ncc2OC)[C@H]1C (single isomer, unassigned) [Example 61A] ? Its hOX2R_Ipone max %act was 100.3

So, CCN1C(=O)NC(C)/C=C/CC(F)(F)COc2cn3ccnc3c(n2)-c2cc(ncc2OC)[C@H]1C (some centres unmarked) [Example 220] ? Its hOX2R_Ipone max %act was 108.5

###

Tested system: hOX2R (Homo sapiens, UniProt O43614)
Construct: expressed in transfected cells; host or cells: CHO cells (G418 selection)
Assay info: hOX2R IPone assay (orexin receptor agonism)
Assay type: cell-based
Conditions used: maximal activation, IPone readout
Measurement name: hOX2R_Ipone max %act (%)
Respond with the bare value in %.

Please review the entries below; each comes with its answer.
| Compound | hOX2R_Ipone max %act (%) |
| --- | --- |
| CCN1C(=O)NC(CCC(F)(F)F)C(C)CCCOc2nc(cn3ccnc23)-c2cccc(c2)[C@H]1C (single isomer, unassigned) [Example 42A] | 100.6 |
| CCN1C(=O)N[C@@H](CC(F)(F)F)CCCCOc2nc(cn3ncnc23)-c2cc(ncc2OC)C1C(F)(F)F (stereo partly shown) [Example 38] | 94.5 |
| CCN1C(=O)NC(CCCOC)CCCCCOc2nc(cn3ccnc23)-c2cc(ncc2OC)[C@H]1C (single isomer, unassigned) [Example 60B] | 100.9 |
| CCCC1CCCCCOc2nc(cn3ccnc23)-c2cc(ncc2OC)[C@@H](C)N(CC)C(=O)N1 (single isomer, unassigned) [Example 54B] | 100.7 |
| CCN1C(=O)N[C@@H](CCC(C)(F)F)CCCCCOc2nc(cn3ncnc23)-c2cc(cnc2C)[C@H]1C [Example 146] | 100.8 |
| CCN1C(=O)N[C@@H](CCC(F)(F)F)COCCCOc2nc(cn3ncnc23)-c2cc(ncc2OC)[C@H]1C [Example 174] | 103.8 |

So, CCN1Cc2cc(c(OC)cn2)-c2cn3ccnc3c(n2)OCCCC[C@H](CCC(F)(F)F)NC1=O [Example 45] ? Its hOX2R_Ipone max %act was 100.1

###

Tested system: hOX2R (Homo sapiens)
Construct: expressed in transfected cells; host or cells: CHO cells (G418 selection)
Sequence (O43614 1-444): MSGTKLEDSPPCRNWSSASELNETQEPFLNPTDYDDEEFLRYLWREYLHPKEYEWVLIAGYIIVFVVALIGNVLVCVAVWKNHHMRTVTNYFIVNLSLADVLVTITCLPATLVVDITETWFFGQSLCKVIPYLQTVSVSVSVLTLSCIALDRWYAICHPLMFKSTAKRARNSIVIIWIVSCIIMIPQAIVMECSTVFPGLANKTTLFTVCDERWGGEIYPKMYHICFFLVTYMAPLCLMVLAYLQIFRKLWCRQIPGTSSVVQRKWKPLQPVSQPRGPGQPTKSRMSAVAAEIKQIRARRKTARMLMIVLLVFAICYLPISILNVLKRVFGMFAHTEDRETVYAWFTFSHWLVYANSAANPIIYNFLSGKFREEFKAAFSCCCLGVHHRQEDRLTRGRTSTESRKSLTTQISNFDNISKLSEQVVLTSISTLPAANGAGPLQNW
Assay info: hOX2R IPone assay (orexin receptor agonism)
Format: cell-based
Conditions used: orexin receptor agonist, IPone readout; read-out: hOX2R_IPone EC50
The entries below are paired with their reported pEC50.
Just so you know, pEC50 here is -log10 of the concentration in molar units; reply with that number alone.

Please review the entries below; each comes with its answer.
| Compound | pEC50 |
| --- | --- |
| CCN1C(=O)N[C@@H](C)C(F)(F)CCCCOc2nc(cn3ccnc23)-c2cc(ncc2OC)[C@H]1C [Example 141] | 8.08 |
| CCN1Cc2cnc(OC)c(c2)-c2cn3ccnc3c(n2)OCCCCC[C@H](CCC(F)(F)F)NC1=O [Example 51] | 9.22 |
| CCN1C(=O)N[C@@H](CCC(F)(F)F)CCCCOc2nc(nn3ccnc23)-c2cc(cnc2OC)[C@H]1C [Example 46] | 8.00 |

So, CCN1C(=O)N[C@@H](CCC(F)(F)F)C/C=C/CCOc2nc(cc3cccnc23)-c2cc(ncc2OC)[C@H]1C [Example 163] ? Its pEC50 was 7.96
